assay text: NCI Yeast Anticancer Drug Screen. Data for the mec2-1 strain (AID 157)
condition set: S. cerevisiae mec2-1 strain, at 5.0 µM (retest, dose inferred, filed as 0.5), active compounds read high
About 79,000 compounds went through this panel and 15% of them were active in at least one assay; those are over-represented in the sample as a whole.
metric name: growth inhibition (%)
Your answer is read as %, so omit the unit and give the number.

Guide cases for growth inhibition, answers given:
molecule	measured value
CCN(CC)CCOc1ccc(NC(=S)Nc2ccc(OCC(C)C)cc2)cc1	29
CCSSC12CCCN1C(=O)C(C)N(C)C2=O (stereo not given)	9
COC(=O)/C=C(\NC1CC(OC2C[C@](O)(C(C)=O)Cc3c(O)c4c(c(O)c32)C(=O)c2c(OC)cccc2C4=O)OC(C)C1O)C(=O)OC (stereo not given in full)	15

query: Form field: reported growth inhibition of c1ccc(-c2c[nH]c(-c3ccccc3)c2-c2ccccc2)cc1
result: -13

query: Please give the measured growth inhibition for this molecule: COC(=O)C(=C(c1ccccc1)c1ccccc1)c1ccccc1
result: 0

query: Quick one: growth inhibition of COc1cccc(C2c3cc4c(cc3OC(NNc3ccccc3)C2C)OCO4)c1O (stereo not given) ?
result: -5

query: # lookup: growth inhibition of COc1ccc2c(Cc3cccc([N+](=O)[O-])c3)cncc2c1O
result: -2

query: I have this molecule here, CNC(=O)OC1/C(C)=C\C(C)C(O)C(OC)CC(C)CC2=C(OC)C(=O)C=C(C2=O)N(C)C(=O)/C(C)=C/C=C\C1OC (stereo not given) , and I need its recorded growth inhibition.
result: -28

query: Which growth inhibition value belongs to O=C1C=CC(=O)c2nc3ccccc3nc21 ?
result: 2

query: Which growth inhibition value belongs to CCCCCCCC[N+](C)(C)Cc1ccc(C[N+](C)(C)CCCCCCCC)cc1 ?
result: 15

====

assay text: NCI Yeast Anticancer Drug Screen. Data for the rad50 strain (AID 155);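 further: 0% = growth of vehicle-only cultures of the same strain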
condition set: S. cerevisiae rad50 strain growth inhibition; at 50.0 µM (retest, dose inferred, filed as 5.0); active compounds read high
About 79,000 compounds went through this panel and 15% of them were active in at least one assay; those are over-represented in the sample as a whole.
metric name: growth inhibition (%)
Only the number, expressed in %, is required.

Worked set:
In [3]: df
Out[3]:
                                   molecule        metric_name  units_label  measured_value
0             CCOC(=O)C(=Cc1ccccc1)C(=O)OCC  growth inhibition            %              92
1  COc1cc(C/C(=C/c2ccc(OC)c3occc23)[N+](=O)[O-])cc(OC)c1OC  growth inhibition            %             100
2  N#CC1CCCC(Cc2ccccc2)(c2ccccc2)C1=O (stereo unspecified)  growth inhibition            %              93

query: I have this molecule here, COC(=O)c1ccccc1NC(=O)C(=O)Cc1nc2c3c(ccc2[nH]c1=O)C(=O)c1ccccc1C3=O , and I need its recorded growth inhibition.
result: 98

query: Consider the molecule shown here: CC12CCc3ccccc3C1=Nc1ccccc12 (stereo unspecified) What is its recorded growth inhibition?
result: 78

query: Recorded growth inhibition for OCCC1CCN(CC/C=C2/c3ccc(F)cc3Sc3ccc(C(F)(F)F)cc32)CC1 , please?
result: 59
